# experiment: protein stability index of a GFP-peptide fusion (yeast GPS) (PSI 1-4); higher = more stable; sorted into four equal gates, so the index is relative within each strain
# measurementParameters: pdr5∆
endpoint: protein stability index

// lookup protein stability index for QVATKYASLKLPNQIPG [YMR129W/POM152]
1.68

----------
Entries and their protein stability index
# experiment: protein stability index of a GFP-peptide fusion (yeast GPS) (PSI 1-4); higher = more stable; sorted into four equal gates, so the index is relative within each strain
# measurementParameters: ubr1∆

Some solved cases for reference:
// lookup protein stability index for MVVQKYKLSTVVLRLYL [GRR1]
1.64

// lookup protein stability index for NNQQRLLLKKLDNFQKS [SMC3]
2.45

// lookup protein stability index for FTRPLFVLLEIEPVTKV [YCS4]
1.97

// lookup protein stability index for LYSYLIKENFFERIMIL [YJL039C/NUP192]
1.26

// lookup protein stability index for RQTLAPYAVLSQFYELR [YJR042W/NUP85]
2.35

// lookup protein stability index for GRGTLFVRGDSKIFRFQ [RPL24A]
2.21

// lookup protein stability index for KTKFQYKFLDQNSDAST [YIL149C/MLP2]
3.06

// lookup protein stability index for FAKFIHHIHHFEKKELQ [IRR1]
2.13

// lookup protein stability index for GVPDDKWEQTYKKPTGG [FAS1]
3.09

// lookup protein stability index for PTHIWNAKRSHMMKRWG [POP1]
2.26

More entries:
// lookup protein stability index for LLVPASDLINKDLVKNN [FAS1]
2.83

// lookup protein stability index for NISISTSELGNDDFSEV [BRR2]
3.12

// lookup protein stability index for AASLGDMVMATVKKGKP [RPL23A]
2.91

// lookup protein stability index for KLDASKKQQAALTNELN [YIL149C/MLP2]
2.17

// lookup protein stability index for SAMPAPYMPYYYYYHPM [DSN1]
2.84

// lookup protein stability index for FTIQSFVSSLSNTSTLK [BRR2]
2.24
